target: T1, HER2 receptor (human, UniProt P04626 23-1255)
T1 construct: whole, on cells; Target as carried by SK-BR-3 human breast carcinoma cells; also called p185HER2; c-erb-B2
protocolDescription: 4 h incubation of immunoliposomes with SK-BR-3 cells (IHC 3+), wash, lysis, doxorubicin fluorescence
observedProperty: Doxorubicin (pg/cell), cellular binding/uptake
Express the result in pg/cell but write the number alone.

Would you kindly share the measured Doxorubicin (pg/cell), cellular binding/uptake for Anti-HER2 Immunoliposomes (15:1) (scFv, terminal cysteine coupled through a thioether linkage to maleimide-PEG-DSPE, On average 15 scFv per liposome; also called 15:1 immunoliposome formulation; immunoliposomes with 15 antibodies per liposome) scFv: QVQLVESGGGLVQPGGSLRLSCAASGFTFRSYAMSWVRQAPGKGLEWVSAISGRGDNTYYADSVKGRFTISRDNSKNTLYLQMNSLRAEDTAVYYCAKMTSNAFAFDYWGQGTLVTVSSGGGGSGGGGSGGGGSQSVLTQPPSVSGAPGQRVTISCTGSSSNIGAGYGVHWYQQLPGTAPKLLIYGNTNRPSGVPDRFSGFKSGTSASLAITGLQAEDEADYYCQSYDSSLSGWVFGGGTKLTVLG ?
8.35

Doxorubicin (pg/cell), cellular binding/uptake for Anti-HER2 Immunoliposomes (45:1) (scFv, terminal cysteine coupled through a thioether linkage to maleimide-PEG-DSPE, On average 45 scFv per liposome; also called 45:1 immunoliposome formulation; F5 scFv immunoliposome) scFv: QVQLVESGGGLVQPGGSLRLSCAASGFTFRSYAMSWVRQAPGKGLEWVSAISGRGDNTYYADSVKGRFTISRDNSKNTLYLQMNSLRAEDTAVYYCAKMTSNAFAFDYWGQGTLVTVSSGGGGSGGGGSGGGGSQSVLTQPPSVSGAPGQRVTISCTGSSSNIGAGYGVHWYQQLPGTAPKLLIYGNTNRPSGVPDRFSGFKSGTSASLAITGLQAEDEADYYCQSYDSSLSGWVFGGGTKLTVLG ?
4.39

Request the reported Doxorubicin (pg/cell), cellular binding/uptake associated with Anti-HER2 Immunoliposomes (30:1) (scFv, terminal cysteine coupled through a thioether linkage to maleimide-PEG-DSPE, On average 30 scFv per liposome; also called 30:1 immunoliposome formulation; F5 scFv immunoliposome) scFv: QVQLVESGGGLVQPGGSLRLSCAASGFTFRSYAMSWVRQAPGKGLEWVSAISGRGDNTYYADSVKGRFTISRDNSKNTLYLQMNSLRAEDTAVYYCAKMTSNAFAFDYWGQGTLVTVSSGGGGSGGGGSGGGGSQSVLTQPPSVSGAPGQRVTISCTGSSSNIGAGYGVHWYQQLPGTAPKLLIYGNTNRPSGVPDRFSGFKSGTSASLAITGLQAEDEADYYCQSYDSSLSGWVFGGGTKLTVLG
6.66

// Doxorubicin (pg/cell), cellular binding/uptake lookup, key: Anti-HER2 Immunoliposomes (7.5:1) (scFv, terminal cysteine coupled through a thioether linkage to maleimide-PEG-DSPE, On average 7.5 scFv per liposome; also called 7.5:1 immunoliposome formulation; immunoliposomes containing 7.5 antibodies per liposome) scFv: QVQLVESGGGLVQPGGSLRLSCAASGFTFRSYAMSWVRQAPGKGLEWVSAISGRGDNTYYADSVKGRFTISRDNSKNTLYLQMNSLRAEDTAVYYCAKMTSNAFAFDYWGQGTLVTVSSGGGGSGGGGSGGGGSQSVLTQPPSVSGAPGQRVTISCTGSSSNIGAGYGVHWYQQLPGTAPKLLIYGNTNRPSGVPDRFSGFKSGTSASLAITGLQAEDEADYYCQSYDSSLSGWVFGGGTKLTVLG
6.02

The origin of these recorded values is patent US20060269542A1.
